biological target: IkappaB kinase β (IKK-β) (Homo sapiens, UniProt O14920); construct: purchased Invitrogen; assay: IKK-β inhibition, Z'-LYTE Kinase Assay Kit Ser/Thr 5 Peptide (FRET); type: biochemical
Sequence (O14920 whole entry): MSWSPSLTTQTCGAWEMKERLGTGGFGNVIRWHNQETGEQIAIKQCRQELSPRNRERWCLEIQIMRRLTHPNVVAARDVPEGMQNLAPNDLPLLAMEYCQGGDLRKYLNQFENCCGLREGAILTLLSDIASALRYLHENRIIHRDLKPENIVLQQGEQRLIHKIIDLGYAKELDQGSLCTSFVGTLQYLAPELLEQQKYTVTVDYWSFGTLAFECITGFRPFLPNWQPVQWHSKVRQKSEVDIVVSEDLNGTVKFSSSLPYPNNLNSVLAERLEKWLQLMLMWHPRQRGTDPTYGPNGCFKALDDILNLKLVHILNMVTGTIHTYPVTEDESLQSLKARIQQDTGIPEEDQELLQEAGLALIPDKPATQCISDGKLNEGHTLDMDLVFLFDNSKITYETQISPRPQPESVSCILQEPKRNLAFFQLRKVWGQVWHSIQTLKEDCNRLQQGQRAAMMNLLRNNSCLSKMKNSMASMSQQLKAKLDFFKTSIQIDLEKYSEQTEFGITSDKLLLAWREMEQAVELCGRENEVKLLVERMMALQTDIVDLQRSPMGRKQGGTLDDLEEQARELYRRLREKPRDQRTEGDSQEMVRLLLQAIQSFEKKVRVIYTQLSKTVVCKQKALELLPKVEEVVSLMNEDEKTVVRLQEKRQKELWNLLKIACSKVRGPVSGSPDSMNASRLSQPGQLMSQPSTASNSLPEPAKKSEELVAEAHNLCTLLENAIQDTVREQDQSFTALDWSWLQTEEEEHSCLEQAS
REPORTED_METRIC: IC50
A bare number is not enough; add the unit after it.

// query IC50 value for entry `COc1cc(C(=O)OC/C(C#N)=C/CO[C@@H]2O[C@H](CO)[C@@H](O)[C@H](O)[C@H]2O)ccc1O`
37 nM

Values from patent US9023816B2
